From: ChEMBL document CHEMBL1806360

tested on: Bacillus subtilis; assay: Antibacterial activity against Bacillus subtilis assessed as zone of inhibition at 100 ug/ml by agar plate method; type: functional; conditions: read-out: IZ
Entries and their zone of inhibition at 100 µg/mL
Give a bare numeral; the unit mm is implied.

Example entries and their recorded answers appear below.
CCOC(=O)C1=C(C)NC(=S)NC1c1cccc(OCCCOc2cccc(C3NC(=S)NC(C)=C3C(=O)OCC)c2)c1 (centres undefined); 8
CCOC(=O)C1=C(C)NC(=S)NC1c1ccc(OCCCCOc2ccc(C3NC(=S)NC(C)=C3C(=O)OCC)cc2OC)c(OC)c1 (centres undefined); 15
CCOC(=O)C1=C(C)NC(=S)NC1c1cccc(OC/C=C\COc2cccc(C3NC(=S)NC(C)=C3C(=O)OCC)c2)c1 (centres undefined); 10

Then this compound:
// sample CCOC(=O)C1=C(C)NC(=S)NC1c1ccc(OCCCCCOc2ccc(C3NC(=S)NC(C)=C3C(=O)OCC)cc2OC)c(OC)c1 (centres undefined) , its zone of inhibition at 100 µg/mL was 8
